test system: TAOK3; settings: concentration: 1 μM, replicates: in singlicate; n = 1;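 further: KINOMEscan kinase panel screen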
Recorded %Inh by entry
Give a bare numeral; the unit % is implied.

Field: example entries. Status: answers known.
>  <COMPOUND>
COc1cccc(NC(=O)NC2CCN(c3ccnc(Nc4ccc(F)cc4)n3)C2)c1 (centres unmarked)

>  <VALUE_MEASURED>
2

$$$$
>  <COMPOUND>
Cc1cc(NCC(c2ccccc2)c2ccccc2)nc(NCc2ccc(C(F)(F)F)cc2)n1

>  <VALUE_MEASURED>
0

$$$$
>  <COMPOUND>
CS(=O)(=O)c1ccc(-c2nc3n(c2-c2ccncc2)CCC3)cc1

>  <VALUE_MEASURED>
0

$$$$
>  <COMPOUND>
Cc1cccc(-c2nc(Nc3ccncc3)c3ccccc3n2)n1

>  <VALUE_MEASURED>
0

$$$$
>  <COMPOUND>
CN1C(=O)C(Nc2ccc(Cl)c(C(=O)O)c2)=C(c2ccc(Cl)cc2)C1=O

>  <VALUE_MEASURED>
19

$$$$

## Task Given the entry "COc1cc2nccc(Nc3ccc(NC(=O)c4ccc(C)cc4)c(O)c3)c2cc1OC.Cl" , report its measured %Inh.
## Result 0

## Task Now consider "O=C(Nc1n[nH]c2nc(-c3nccs3)c(Br)cc12)C1CCCC1" and answer again.
## Result 0

## Task Now consider "NC(=O)c1nnc2ccccc2c1N" and answer again.
## Result 3

---

tested on: TRKA; construct: gene NTRK1; conditions: concentration: 1 μM, replicates: in singlicate; n = 1
Recorded %Inh by entry
Give a bare numeral; the unit % is implied.

Field: example entries. Status: answers known.
>  <MOLECULE>
COc1ccccc1-c1ccc2c(NC(=O)C3CC3)n[nH]c2n1 [SB-711239]

>  <UNIT_INFO>
%

>  <%Inh>
24

$$$$
>  <MOLECULE>
Cl.Oc1ccc(-c2nc(-c3ccccc3)[nH]c2-c2ccncc2)cc1 [SB-428218]

>  <UNIT_INFO>
%

>  <%Inh>
0

$$$$
>  <MOLECULE>
O=c1cc(N2CCOCC2)nc2n(Cc3cccc(Cl)c3Cl)ccn12 [GSK2286295]

>  <UNIT_INFO>
%

>  <%Inh>
0

$$$$
>  <MOLECULE>
Cc1ccc(NC(=O)Nc2cc(C(C)(C)C)nn2-c2ccccc2)cc1 [GSK1014915]

>  <UNIT_INFO>
%

>  <%Inh>
0

$$$$

## Task Recorded %Inh for "O=C(Nc1ccccc1)Nc1cccc(Oc2ccc3nccn3n2)c1" with TRKA, please?
## Result 0

## Task Now consider COc1cc(Nc2nccc(N3CCC(NC(=O)Nc4cc(C)ccc4C)C3)n2)cc(OC)c1OC (stereo not shown) [GSK1379762] and answer again.
## Result 18

## Task Now consider COc1ccc(Nc2nccc(NCCNC(=O)Nc3ccccc3F)n2)cc1 [GSK1379901] and answer again.
## Result 0

---

Recorded %Inh by entry
tested on: CSNK1A1; conditions: concentration: 1 μM, replicates: in singlicate; n = 1
Give a bare numeral; the unit % is implied.

>  <STRUCTURE_SMILES>
O=C(Nc1n[nH]c2nc(-c3nccs3)c(Br)cc12)C1CC1

>  <VALUE_MEASURED>
0

$$$$
>  <STRUCTURE_SMILES>
CS(=O)(=O)c1ccc(-c2c(-c3ncn[nH]3)sc(N3CCOCC3)c2C#N)cc1

>  <VALUE_MEASURED>
48

$$$$
>  <STRUCTURE_SMILES>
Clc1cc(Cl)cc(Nc2ccnc(Nc3cc(Cl)cc(Cl)c3)n2)c1

>  <VALUE_MEASURED>
0

$$$$

Moving on to the next compound.
## Task Given the entry "COc1ccc2nc(-c3cccc(C)n3)nc(Nc3ccncc3)c2c1" , report its measured %Inh.
## Result 31
